Exercise: for every item that follows, state its recorded DC50.
- TARGET: PTPN2 (HiBIT-PTPN2 in 293T.109 cells) (Homo sapiens, UniProt P17706)
- Construct: expressed in transfected cells; host or cells: 293T.109 (293T WT from ATCC)
- Sequence (P17706 whole entry, species assumed): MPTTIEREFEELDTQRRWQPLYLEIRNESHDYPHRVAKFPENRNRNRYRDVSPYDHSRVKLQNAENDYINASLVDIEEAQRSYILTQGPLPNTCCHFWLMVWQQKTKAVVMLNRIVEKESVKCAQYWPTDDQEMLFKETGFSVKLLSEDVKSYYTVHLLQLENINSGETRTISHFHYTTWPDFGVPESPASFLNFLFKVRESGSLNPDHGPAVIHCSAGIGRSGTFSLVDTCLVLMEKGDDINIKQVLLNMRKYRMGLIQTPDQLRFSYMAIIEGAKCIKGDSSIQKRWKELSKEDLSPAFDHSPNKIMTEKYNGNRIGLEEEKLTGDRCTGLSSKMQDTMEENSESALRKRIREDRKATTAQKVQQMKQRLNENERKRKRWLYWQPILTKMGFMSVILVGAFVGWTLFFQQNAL
- ASSAY DETAILS: HiBiT Degradation 293T.109 PTPN2 (Nano-Glo HiBiT Lytic Assay)
- Type: cell-based
- RECORDED CONDITIONS: 24.0 hours

# input GET /values?readout=DC50&item= CC1(C)C[C@@H](Nc2cccc(-c3sc(C(=O)O)c(OCC(=O)O)c3Cl)c2)CCN1S(=O)(=O)Cc1cccc(NC(=O)N2CCC(c3ccc4c(c3)c3cccnc3n4C3CCC(=O)NC3=O)CC2)c1 (stereo partly drawn) [Example 195]
# output 200 to 1000 nM

# input Check CC(C)n1c(=O)n(C2CCC(=O)NC2=O)c2ccc(C3CCN(CC(=O)Nc4cccc(CS(=O)(=O)N5CC[C@H](Nc6cccc(-c7sc(C(=O)O)c(OCC(=O)O)c7Cl)c6)CC5(C)C)c4)CC3)cc21 (stereo partly drawn) [Example 204] too.
# output 50 to 200 nM

# input What do you have for CC1(C)C[C@@H](Nc2cccc(-c3sc(C(=O)O)c(OCC(=O)O)c3Cl)c2)CCN1S(=O)(=O)Cc1cccc(NC(=O)[C@H]2CC[C@H](C(=O)Nc3cccc4c3CN(C3CCC(=O)NC3=O)C4=O)CC2)c1 (stereo partly drawn) [Example 86] ?
# output 50 to 200 nM

# input Next molecule up: CC1(C)C[C@@H](Nc2cccc(-c3sc(C(=O)O)c(OCC(=O)O)c3Cl)c2)CCN1S(=O)(=O)Cc1cccc(NC(=O)C2CCN(C(=O)COc3cccc4c3C(=O)N(C3CCC(=O)NC3=O)C4=O)CC2)c1 (stereo partly drawn) [Example 58]
# output 200 to 1000 nM

# input Same again, this time with Cn1c(=O)n(C2CCC(=O)NC2=O)c2ccc(N3CC4(CN(C(=O)Nc5cccc(CS(=O)(=O)N6CC[C@H](Nc7cccc(-c8sc(C(=O)O)c(OCC(=O)O)c8Cl)c7)CC6(C)C)c5)C4)C3)cc21 (stereo partly drawn) [Example 140]
# output < 50 nM

# input Same read-out for CN(C(=O)C1CCN(C(=O)CNc2cccc3c2CN(C2CCC(=O)NC2=O)C3=O)CC1)c1cccc(CS(=O)(=O)N2CC[C@H](Nc3cccc(-c4sc(C(=O)O)c(OCC(=O)O)c4Cl)c3)CC2(C)C)c1 (stereo partly drawn) [Example 67] ?
# output 200 to 1000 nM

# input Next molecule up: CC1(C)C[C@@H](Nc2cccc(-c3sc(C(=O)O)c(OCC(=O)O)c3Cl)c2)CCN1S(=O)(=O)Cc1cccc(NC(=O)[C@H]2CC[C@H](c3ccc4c5c(cccc53)C(=O)N4C3CCC(=O)NC3=O)CC2)c1 (stereo partly drawn) [Example 165]
# output < 50 nM

# input # iterate: CC1(C)C[C@@H](Nc2cccc(-c3sc(C(=O)O)c(OCC(=O)O)c3Cl)c2)CCN1S(=O)(=O)Cc1cccc(NC(=O)NCCCc2ccc3c4c(cccc24)N(C2CCC(=O)NC2=O)C3=O)c1 (stereo partly drawn) [Example 177]
# output 50 to 200 nM

# input What would you report for CC1(C)C[C@@H](Nc2cccc(-c3sc(C(=O)O)c(OCC(=O)O)c3Cl)c2)CCN1S(=O)(=O)Cc1cccc(NC(=O)C2CCN(C(=O)COc3cccc4c3CN(C3CCC(=O)NC3=O)C4=O)CC2)c1 (stereo partly drawn) [Example 63] ?
# output 50 to 200 nM

Cited source: patent US20250302815A1
